Tested on: PDC 899932-113-R3-J6 complex spheroid viability;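 also: spheroids exposed to agents for seven days before readout; 100% = DMSO vehicle control wells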
protocol notes: Anticancer human tumor 899932-113-R3-J6-PDC patient-derived melanoma cell line growth inhibition [RAS]
experimental parameters: second compound 0.316 µM; first compound 1 µM; hits give low values
readout: viability, T/C (%)

>>> test_value("CC(C)NCC(C(=O)N1CCN(c2ncnc3c2C(C)CC3O)CC1)c1ccc(Cl)cc1 (configuration not stated) + C#Cc1c(F)ccc2cc(O)cc(-c3ncc4c(N5CC6CCC(C5)N6)nc(OCC56CCCN5CC(F)C6)nc4c3F)c12")
99.6
>>> test_value("CC(=O)OC12COC1CC(O)C1(C)C(=O)C(O)C3=C(C)C(OC(=O)C(O)C(NC(=O)OC(C)(C)C)c4ccccc4)CC(O)(C(OC(=O)c4ccccc4)C21)C3(C)C (configuration not stated) + C=CC(=O)N1CCN(c2nc(OCC3CCCN3C)nc3c(F)c(-c4nc(N)cc(C)c4C(F)(F)F)c(Cl)cc23)C(C)C1")
47.1

Data provenance is PubChem BioAssay AID2060895.
